Data provenance: PubChem BioAssay AID1963963

tested on: 958667-338-R-J2-PDC tumor spheroids viability; experiment: Anticancer human tumor 958667-338-R-J2-PDC patient-derived colon adenocarcinoma cell line growth inhibition [PI3K]; conditions: compound 3.16 µM; stronger effect = lower value; spheroids with HUVEC and MSC;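 note: spheroids exposed to compounds for seven days before readout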

{"compound": "Cn1nccc1Nc1nccc(-c2ccn(C(CO)c3ccc(Cl)c(F)c3)c(=O)c2)n1 (stereo not given)", "targetSystem": "958667-338-R-J2-PDC tumor spheroids viability", "viability, T/C": "89.5% [middle of 4 runs]"}
{"compound": "Cn1ncc(Cl)c1-c1cc(C(=O)NC(CN)Cc2cccc(F)c2)sc1Cl (stereo not given)", "targetSystem": "958667-338-R-J2-PDC tumor spheroids viability", "viability, T/C": "53.8% [middle of 4 runs]"}
{"compound": "CCCS(=O)(=O)Nc1ccc(F)c(C(=O)c2c[nH]c3ncc(-c4ccc(Cl)cc4)cc23)c1F", "targetSystem": "958667-338-R-J2-PDC tumor spheroids viability", "viability, T/C": "116% [middle of 4 runs]"}
{"compound": "C[C@@H](NC(=O)c1ncnc(N)c1Cl)c1ncc(C(=O)Nc2cc(C(F)(F)F)c(Cl)cn2)s1", "targetSystem": "958667-338-R-J2-PDC tumor spheroids viability", "viability, T/C": "95.3% [middle of 4 runs]"}
{"compound": "CC1(C)CCC(CN2CCN(c3ccc(C(=O)NS(=O)(=O)c4ccc(NCC5CCOCC5)c([N+](=O)[O-])c4)c(Oc4cnc5[nH]ccc5c4)c3)CC2)=C(c2ccc(Cl)cc2)C1", "targetSystem": "958667-338-R-J2-PDC tumor spheroids viability", "viability, T/C": "98.7% [middle of 4 runs]"}
{"compound": "Cc1nc(NC(=O)N2CCCC2C(N)=O)sc1-c1ccnc(C(C)(C)C(F)(F)F)c1 (stereo not given)", "targetSystem": "958667-338-R-J2-PDC tumor spheroids viability", "viability, T/C": "71.5% [middle of 8 runs]"}
{"compound": "C=CC(=O)N1CCN(c2nc(=O)n(-c3c(C)ccnc3C(C)C)c3nc(-c4c(O)cccc4F)c(F)cc23)C(C)C1 (stereo not given)", "targetSystem": "958667-338-R-J2-PDC tumor spheroids viability", "viability, T/C": "113% [middle of 4 runs]"}
{"compound": "CC1(C)CCC(Nc2ncc(C(F)(F)F)c(-c3c[nH]c4c(P(C)(C)=O)c(C#N)ccc34)n2)CN1 (stereo not given)", "targetSystem": "958667-338-R-J2-PDC tumor spheroids viability", "viability, T/C": "64.5% [middle of 4 runs]"}
{"compound": "CC(Cn1ccc(-c2ccc(C#N)c(Cl)c2)n1)NC(=O)c1cc(C(C)O)[nH]n1 (stereo not given)", "targetSystem": "958667-338-R-J2-PDC tumor spheroids viability", "viability, T/C": "107% [middle of 4 runs]"}
{"compound": "C#Cc1c(F)ccc2cc(O)cc(-c3ncc4c(N5CC6CCC(C5)N6)nc(OCC56CCCN5CC(F)C6)nc4c3F)c12 (stereo not given)", "targetSystem": "958667-338-R-J2-PDC tumor spheroids viability", "viability, T/C": "86.7% [middle of 4 runs]"}
